- Target Or Test System: StrepII-tagged ROR1-extracellular domain (human, UniProt Q01973)
- Sequence (Q01973 other isoform, or with tags, fused parts or gaps): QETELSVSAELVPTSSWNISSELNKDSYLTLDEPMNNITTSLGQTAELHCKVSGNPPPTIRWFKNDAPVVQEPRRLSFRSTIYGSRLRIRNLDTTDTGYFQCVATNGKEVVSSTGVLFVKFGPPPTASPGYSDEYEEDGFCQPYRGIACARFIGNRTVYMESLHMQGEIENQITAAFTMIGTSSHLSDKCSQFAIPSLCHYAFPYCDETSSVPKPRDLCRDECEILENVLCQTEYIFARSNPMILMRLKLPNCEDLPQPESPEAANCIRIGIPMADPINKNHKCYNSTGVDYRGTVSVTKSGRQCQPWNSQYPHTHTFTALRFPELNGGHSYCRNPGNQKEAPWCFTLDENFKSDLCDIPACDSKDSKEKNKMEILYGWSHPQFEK
- Protocol Text: SPR (Biacore T200), purified mAb captured by anti-human Fc, ROR1-strep as analyte, 1:1 model
Experimental Readout: koff (s⁻¹)
Provide only the numeric value, understood in s⁻¹.

Lookup: Provide measured koff value, entry: hu2A2b-Q11, humanized from 2A2 (antibody, V domains shown) VH: EVQLVQSGAEVKKPGASVKVSCKASGYTFSDYEMHWVRQAPGQGLEWLGAIDPETGGTAYNQKFKGRVTMTGDTSISTAYMELSRLTSDDTAVYYCTGYYDYDSFTYWGQGTLVSVSS VL: DIQMTQSPSSLSTSVGDRVTITCKASQNVDAAVAWYQQKPGKAPKLLIYSASNRYTGVASRFSGSGSGTDFTFTISSLQSEDLADYFCQQYDIYPYTFGQGTKLEIK
Found: 0.0173
